- Tested on: HLA-A*24
- assay overview: MHC binding assay, UV-ligand exchange with beta2m ELISA (exchange yield), HLA-A*24
- Design: species or system human
- condition info: binding to HLA-A*24, UV-ligand exchange
recorded endpoint: Peptide exchange (MHC class I binding score, peptide exchange yield)

substance: 234 (SYLPAIWLL; listed as Homo sapiens) [compound 234]
result: +++ (50%-75% = +++)
--
substance: 258 (AYAQLGYLL; listed as Homo sapiens) [compound 258]
result: +++ (50%-75% = +++)
--
substance: 384 (RYFDVGLHNF; listed as Homo sapiens) [compound 384]
result: +++ (50%-75% = +++)
--
substance: 374 (VFLPRVTEL; listed as Homo sapiens) [compound 374]
result: ++ (20%-49% = ++)
--
substance: 173 (QYLEKYYNL; listed as Homo sapiens) [compound 173]
result: ++++ (>=75% = ++++)
--
substance: 288 (VYPDTVALTF; listed as Homo sapiens) [compound 288]
result: ++ (20%-49% = ++)
--
substance: 136 (IYPEWPVVFF; listed as Homo sapiens) [compound 136]
result: +++ (50%-75% = +++)
--
substance: 360 (VFSPDGHLF; listed as Homo sapiens) [compound 360]
result: +++ (50%-75% = +++)

Could you tell me which Peptide exchange (MHC class I binding score, peptide exchange yield) is on file for 178 (NYSSAVQKF; listed as Homo sapiens) [compound 178] ?
+++ (50%-75% = +++)

Could you tell me which Peptide exchange (MHC class I binding score, peptide exchange yield) is on file for 348 (IYLEHTESI; listed as Homo sapiens) [compound 348] ?
+++ (50%-75% = +++)

Could you tell me which Peptide exchange (MHC class I binding score, peptide exchange yield) is on file for 180 (KYLQVVGMF; listed as Homo sapiens) [compound 180] ?
+++ (50%-75% = +++)

Could you tell me which Peptide exchange (MHC class I binding score, peptide exchange yield) is on file for 213 (SYAPPSEDLFL; listed as Homo sapiens) [compound 213] ?
++ (20%-49% = ++)

Could you tell me which Peptide exchange (MHC class I binding score, peptide exchange yield) is on file for 233 (QYLTAAALHNL; listed as Homo sapiens) [compound 233] ?
+++ (50%-75% = +++)

Could you tell me which Peptide exchange (MHC class I binding score, peptide exchange yield) is on file for 305 (NYENKQYLF; listed as Homo sapiens) [compound 305] ?
++++ (>=75% = ++++)

Could you tell me which Peptide exchange (MHC class I binding score, peptide exchange yield) is on file for 210 (IYAGVGEFSF; listed as Homo sapiens) [compound 210] ?
++++ (>=75% = ++++)

Could you tell me which Peptide exchange (MHC class I binding score, peptide exchange yield) is on file for 104 (SYLTWHQQI; listed as Homo sapiens) [compound 104] ?
++++ (>=75% = ++++)

Could you tell me which Peptide exchange (MHC class I binding score, peptide exchange yield) is on file for 302 (LYLPVHYGF; listed as Homo sapiens) [compound 302] ?
+++ (50%-75% = +++)

Could you tell me which Peptide exchange (MHC class I binding score, peptide exchange yield) is on file for 281 (NYSPGLVSLIL; listed as Homo sapiens) [compound 281] ?
+++ (50%-75% = +++)

Could you tell me which Peptide exchange (MHC class I binding score, peptide exchange yield) is on file for 309 (KYYRQTLLF; listed as Homo sapiens) [compound 309] ?
++ (20%-49% = ++)

====

- Test system: HLA-A*24
- assay overview: MHC binding assay, UV-ligand exchange with beta2m ELISA (exchange yield), HLA-A*24
- Parameters: species or system human
- condition info: binding to HLA-A*24, UV-ligand exchange
recorded endpoint: Peptide exchange (MHC class I binding score, peptide exchange yield)

Below, 5 substances whose answers are already recorded.
substance: 159 (IYEETRGVL; listed as Homo sapiens) [compound 159]
result: +++ (50%-75% = +++)
--
substance: 128 (VYPFDWQYI; listed as Homo sapiens) [compound 128]
result: ++++ (>=75% = ++++)
--
substance: 188 (GYKTFFNEF; listed as Homo sapiens) [compound 188]
result: +++ (50%-75% = +++)
--
substance: 191 (TYPDGTYTGRIF; listed as Homo sapiens) [compound 191]
result: +++ (50%-75% = +++)
--
substance: 381 (KYPASSSVF; listed as Homo sapiens) [compound 381]
result: +++ (50%-75% = +++)

For the next question, use this substance.
Could you tell me which Peptide exchange (MHC class I binding score, peptide exchange yield) is on file for 286 (SYGTILSHI; listed as Homo sapiens) [compound 286] ?
++++ (>=75% = ++++)

====

- Tested on: HLA-A*24
- assay overview: MHC binding assay, UV-ligand exchange with beta2m ELISA (exchange yield), HLA-A*24
- Design: species or system human
- condition info: binding to HLA-A*24, UV-ligand exchange
recorded endpoint: Peptide exchange (MHC class I binding score, peptide exchange yield)

Below, 5 substances whose answers are already recorded.
substance: 175 (LYSPVPFTL; listed as Homo sapiens) [compound 175]
result: +++ (50%-75% = +++)

substance: 358 (YYSEVPVKL; listed as Homo sapiens) [compound 358]
result: +++ (50%-75% = +++)

substance: 170 (QYPFHVPLL; listed as Homo sapiens) [compound 170]
result: ++++ (>=75% = ++++)

substance: 106 (IYNETVRDLL; listed as Homo sapiens) [compound 106]
result: +++ (50%-75% = +++)

substance: 317 (VFDTSIAQLF; listed as Homo sapiens) [compound 317]
result: +++ (50%-75% = +++)

Could you tell me which Peptide exchange (MHC class I binding score, peptide exchange yield) is on file for 350 (KYGNFIDKL; listed as Homo sapiens) [compound 350] ?
+++ (50%-75% = +++)

Could you tell me which Peptide exchange (MHC class I binding score, peptide exchange yield) is on file for 386 (TFSDVEAHF; listed as Homo sapiens) [compound 386] ?
+++ (50%-75% = +++)

====

- Test system: HLA-A*24
- assay overview: MHC binding assay, UV-ligand exchange with beta2m ELISA (exchange yield), HLA-A*24
- Design: species or system human
- condition info: binding to HLA-A*24, UV-ligand exchange
- From the text: Candidate peptides for T cell based therapies according to the present invention were further tested for their MHC binding capacity (affinity). The individual peptide-MHC complexes were produced by UV-ligand exchange, where a UV-sensitive peptide is cleaved upon UV-irradiation, and exchanged with the peptide of interest as analyzed. Only peptide candidates that can effectively bind and stabilize the peptide-receptive MHC molecules prevent dissociation of the MHC complexes. […]
recorded endpoint: Peptide exchange (MHC class I binding score, peptide exchange yield)

Below, 8 substances whose answers are already recorded.
substance: 177 (VYFKAGLDVF; listed as Homo sapiens) [compound 177]
result: +++ (50%-75% = +++)
//
substance: 133 (KYLEDMKTYF; listed as Homo sapiens) [compound 133]
result: +++ (50%-75% = +++)
//
substance: 243 (SYLELANTL; listed as Homo sapiens) [compound 243]
result: +++ (50%-75% = +++)
//
substance: 199 (SYLNHLNNL; listed as Homo sapiens) [compound 199]
result: +++ (50%-75% = +++)
//
substance: 371 (AYSHLRYVF; listed as Homo sapiens) [compound 371]
result: ++ (20%-49% = ++)
//
substance: 361 (TYADIGGLDNQI; listed as Homo sapiens) [compound 361]
result: +++ (50%-75% = +++)
//
substance: 212 (SYAPPSEDLF; listed as Homo sapiens) [compound 212]
result: ++ (20%-49% = ++)
//
substance: 377 (QYTPHSHQF; listed as Homo sapiens) [compound 377]
result: +++ (50%-75% = +++)

What is its Peptide exchange (MHC class I binding score, peptide exchange yield) for HLA-A*24? Entry: 295 (SYLVIHERI; listed as Homo sapiens) [compound 295]
+++ (50%-75% = +++)

What is its Peptide exchange (MHC class I binding score, peptide exchange yield) for HLA-A*24? Entry: 262 (VYSSQFETI; listed as Homo sapiens) [compound 262]
++++ (>=75% = ++++)

====

- System: HLA-A*24
- assay overview: MHC binding assay, UV-ligand exchange with beta2m ELISA (exchange yield), HLA-A*24
- Parameters: species or system human
- condition info: binding to HLA-A*24, UV-ligand exchange
- Description: Candidate peptides for T cell based therapies according to the present invention were further tested for their MHC binding capacity (affinity). The individual peptide-MHC complexes were produced by UV-ligand exchange, where a UV-sensitive peptide is cleaved upon UV-irradiation, and exchanged with the peptide of interest as analyzed. Only peptide candidates that can effectively bind and stabilize the peptide-receptive MHC molecules prevent dissociation of the MHC complexes. […]
recorded endpoint: Peptide exchange (MHC class I binding score, peptide exchange yield)

Below, 10 substances whose answers are already recorded.
substance: 149 (SYGTVSQI; listed as Homo sapiens) [compound 149]
result: ++++ (>=75% = ++++)
--
substance: 198 (DYVGFTLKI; listed as Homo sapiens) [compound 198]
result: ++ (20%-49% = ++)
--
substance: 368 (KYQNVKHNL; listed as Homo sapiens) [compound 368]
result: +++ (50%-75% = +++)
--
substance: 375 (KYTDYILKI; listed as Homo sapiens) [compound 375]
result: +++ (50%-75% = +++)
--
substance: 314 (RYFKGDYSI; listed as Homo sapiens) [compound 314]
result: +++ (50%-75% = +++)
--
substance: 163 (RYLTISNLQF; listed as Homo sapiens) [compound 163]
result: ++++ (>=75% = ++++)
--
substance: 264 (LYTETRLQF; listed as Homo sapiens) [compound 264]
result: ++++ (>=75% = ++++)
--
substance: 193 (LYLENNAQTQF; listed as Homo sapiens) [compound 193]
result: +++ (50%-75% = +++)
--
substance: 291 (YYLGSGRETF; listed as Homo sapiens) [compound 291]
result: +++ (50%-75% = +++)
--
substance: 174 (VYEKNGYIYF; listed as Homo sapiens) [compound 174]
result: +++ (50%-75% = +++)

Could you tell me which Peptide exchange (MHC class I binding score, peptide exchange yield) is on file for 261 (GYIKLINFI; listed as Homo sapiens) [compound 261] ?
++++ (>=75% = ++++)

Could you tell me which Peptide exchange (MHC class I binding score, peptide exchange yield) is on file for 129 (KYIDYLMTW; listed as Homo sapiens) [compound 129] ?
++++ (>=75% = ++++)

Could you tell me which Peptide exchange (MHC class I binding score, peptide exchange yield) is on file for 232 (YYLSDSPLL; listed as Homo sapiens) [compound 232] ?
+++ (50%-75% = +++)

Could you tell me which Peptide exchange (MHC class I binding score, peptide exchange yield) is on file for 127 (QYFTGNPLF; listed as Homo sapiens) [compound 127] ?
+++ (50%-75% = +++)

Could you tell me which Peptide exchange (MHC class I binding score, peptide exchange yield) is on file for 119 (VYRVYVTTF; listed as Homo sapiens) [compound 119] ?
+++ (50%-75% = +++)

Could you tell me which Peptide exchange (MHC class I binding score, peptide exchange yield) is on file for 153 (VYVPFGGKSMITF; listed as Homo sapiens) [compound 153] ?
++++ (>=75% = ++++)
